system: Sigma intracellular receptor 2 (Homo sapiens, UniProt Q5BJF2)
Sequence (Q5BJF2 whole entry): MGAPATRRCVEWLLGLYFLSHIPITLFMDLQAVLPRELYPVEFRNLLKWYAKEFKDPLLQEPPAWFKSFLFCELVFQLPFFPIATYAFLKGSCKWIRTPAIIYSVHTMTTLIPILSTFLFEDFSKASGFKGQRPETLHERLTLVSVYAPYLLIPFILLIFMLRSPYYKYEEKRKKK
assay.info: Inhibition of sigma2 receptor (unknown origin)
metric: IC50 (µM)
Field: numeric (µM). Do not append units.

I have this compound here, `O=C(c1nc2cccnc2n1-c1ccc(Cl)c(Cl)c1)N1CC(F)(F)C1` , and I need its recorded IC50. 7.8

----------
assay.info: Protein binding in mouse plasma assessed as unbound fraction
Format: ADME, cell-free
metric: fraction unbound
Lab note: jot the number down without any unit.

{"columns": ["sample.smiles", "observed.measurement"],
 "data": [
  ["Cc1ccc(-n2c(C(=O)NC3CC3)nc3cccnc32)cc1Cl", 0.056],
  ["O=C(c1cc2cccnc2n1-c1cc(F)c(Cl)c(F)c1)N1CC(F)(F)C1", 0.051]
]}

Please give the measured fraction unbound for this molecule: `COc1c(F)cc(-n2c(C(=O)N3CC(F)C3)cc3cccnc32)cc1F` 0.133
